Reported Metric: melting point

INSERT INTO assay_data (compound, reported_metric, result) VALUES
  ('COc1c2c(c(OC)c(OC)c1OC)CCC(CCn1nnc3ccccc31)CC2', 'melting point', '99 to 101 °C'),
  ('CC(C)C(NC(=O)OCc1ccccn1)C(=O)NC(Cc1ccccc1)C(O)C(O)C(Cc1ccccc1)NC(=O)OC(C)(C)C (stereo unspecified)', 'melting point', '202 to 204 °C'),
  ('Cc1ccc2c(n1)NC(C)C(=O)N2 (racemic)', 'melting point', '203 to 205 °C'),
  ('CC(C)[C@]1(CCc2ccccc2)CC(O)=C(Sc2cc3sc(N)nc3cc2C(C)(C)C)C(=O)O1', 'melting point', '186 to 188 °C'),
  ('NC1=CCC(c2nc3c(-c4cnn(-c5ccc(F)cc5)c4)cccn3n2)(C2CCNCC2)C=C1 (stereo unspecified)', 'melting point', '245 to 247 °C'),
  ('NS(=O)(=O)c1ccc(-c2noc(-c3cnn4c(C(F)(F)F)cc(-c5ccc(C(F)(F)F)cc5)nc34)n2)s1', 'melting point', '276 °C'),
  ('Clc1ccc(-c2n[nH]c3cc4ccccc4cc23)cc1', 'melting point', '192 °C'),
  ('CN1CCN(c2ccc(OCc3cc(CCC(=O)O)c4c(c3)CC(NS(=O)(=O)c3ccc(Cl)cc3)CC4)cc2)CC1 (stereo unspecified)', 'melting point', '148 °C'),
  ('CCN(CC)CCc1ccc(NC(=O)C#Cc2ccc(C(F)(F)F)cc2Cl)cc1', 'melting point', '145 to 150 °C'),
  ('COCn1ncc2cc(C(=O)OC)ccc21', 'melting point', '73 to 74 °C'),
  ('COC(c1nnc2n1-c1ccc(Cl)cc1C(c1ccccc1)=NC2)C1COC(C)(C)O1 (stereo unspecified)', 'melting point', '130 to 134 °C'),
  ('COC=C(C(=O)OC)N(C)c1nccc(-c2ccccc2)n1', 'melting point', '123 to 125 °C'),
  ('O=C(O)c1cc(=O)c2c(O)cccc2[nH]1', 'melting point', '298 to 301 °C'),
  ('Cn1c(=O)n(Cc2cccs2)c(=O)c2cc(C(=O)NCc3ccc4c(c3)OCO4)ccc21', 'melting point', '224 °C'),
  ('CCCCCCCCCCCCCCCNC(=O)OCCOCCOCCOC(=O)N(Cc1ccccn1)C(C)=O', 'melting point', '42 to 43 °C'),
  ('COC(=O)CCc1nc(C=O)ccc1OC', 'melting point', '95 to 97 °C');

* * *

Reported Metric: melting point

INSERT INTO assay_data (molecule, reported_metric, result) VALUES
  ('Cc1ccc(S(=O)(=O)NC(=O)N2C(=O)C(C)N2C(c2ccccc2)c2ccccc2)cc1 (stereo unspecified)', 'melting point', '155 to 159 °C'),
  ('O=C(Nc1ccnc(Br)c1)C1(O)CCCC1', 'melting point', '153 °C'),
  ('CO[C@@H]1[C@@H](OC)[C@H](C)O[C@@H](ON=Cc2ccc(-c3cn(-c4ccc(OC(F)(F)F)cc4)cn3)cc2)[C@@H]1OC', 'melting point', '178 °C'),
  ('CCc1cc(=O)c2c([nH]1)COCC2', 'melting point', '216 to 218 °C'),
  ('COc1ccccc1OCC(O)CNCCOc1ccc(C(N)=O)cn1 (stereo unspecified)', 'melting point', '98 to 105 °C'),
  ('O=C1CC(c2cccc(-n3ccnc3)c2)=Nc2cc(N3CC[C@@H](O)C3)c(-c3ccc(F)cc3)cc2N1', 'melting point', '155 to 158 °C');
